protocol: protein stability index of a GFP-peptide fusion (GPS, HEK-293T) (PSI 1-6); higher = more stable;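 further: 24-mer peptide tiles fused after GFP, lentivirally expressed, FACS-sorted into six equal bins by GFP/DsRed ratio, decoded by Illumina sequencing, PSI is the read-weighted mean bin number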
conditionDescription: treatment: MLN4924 1 uM, 8 h; c terminus: a fixed tail appended
Tick Y if protein stability index is 3 or greater. Tick N if protein stability index is less than 3.

Reference set, count: 8
| sequenceText | discreteLabel |
| --- | --- |
| SGCDKEALLTGGGSENRNHRLLNM [RNF180] | Y |
| RDRQQAPGLGQESKAPGSCDPGTD [TLE6] | Y |
| VLVLTKPLGTQVAVNAHQWLDNPE [SEPHS2] | N |
| LLIYTVKIRRFNKAKPEPDILEEE [TMEM192] | N |
| LEFLLALYFLFADAMQLNDKWQGL [CMTM3] | N |
| METSASSSQPQDNSQVHRETEDVD [TMEM40] | Y |
| FHNLRNTLDGYGIHPKSIDLDNYF [NFE2L1] | N |
| PLCNFNIIESFTELARIVLLRHRM [RAB40A] | N |

Task: # check: protein stability index of SRETQRTPMNHQKAVNDETCKASH [FBXO34] is greater than or equal to 3
Result: Y

Task: # repeat for ETAVEGDPSGVSGATVGRKSRRSR [C18orf25]
Result: Y

Task: Continue with TLHPISSEELLSLKYENDYPSVIL [ETS1]
Result: N

Task: Entry FEEFVHYLQDHEKKLRLVFKSLDK [SLC25A25] please
Result: N

----------
protocol: protein stability index of a GFP-peptide fusion (GPS, HEK-293T) (PSI 1-6); higher = more stable
conditionDescription: treatment: DMSO; c terminus: a fixed tail appended
Listed next: entries and their corresponding protein stability index.
Response field accepts a number only; no unit should be typed.

| sequenceText | propertyLabel | measuredValue |
| --- | --- | --- |
| WEEEKALWVEERALLEGEKALWED [CCDC70] | protein stability index | 5.07 |
| DLAKTGCVDLTITNLLEGAVAFMP [AUP1] | protein stability index | 2.21 |

Read the next record carefully.
Task: Quick one: protein stability index for TCTDRSGISTGHWSGEVKDKNVQV [FUT8] ?
Result: 4.51

----------
protocol: protein stability index of a GFP-peptide fusion (GPS, HEK-293T) (PSI 1-6); higher = more stable
conditionDescription: treatment: DMSO; c terminus: a fixed tail appended
Reported protein stability index values follow for various sequences
# output: bare number, no unit

| sequenceText | protein stability index |
| --- | --- |
| EFKQNIENVSVEMLLRKFAESKGT [FCHO1] | 2.84 |

Task: # lookup: protein stability index of ACDLQPCPTEPPDDSCQDQPGTNC [ADAMTSL2]
Result: 5.49

Task: Query PGCGYFCTAGNFMECQPESSISHR [EHMT1] next
Result: 2.64

Task: Request: QLGRALTAHLYSLLQTQHALGDAF [ARFIP2]
Result: 3.25

----------
protocol: protein stability index of a GFP-peptide fusion (GPS, HEK-293T) (PSI 1-6); higher = more stable
conditionDescription: treatment: MLN4924 1 uM, 8 h; c terminus: a fixed tail appended
Measured protein stability index values are reported for all entries that follow.
Write the value as a bare number.

Past entries and their recorded results:
| sequenceText | protein stability index |
| --- | --- |
| EPLFEAGDATLASDLQDWASVGAF [FOXJ1] | 3.92 |
| MGCLGVAKEDGKADTKKRHTPRGH [SMOC2] | 5 |
| ELRRQAPPPPPPSRGGPPPPPPPP [WASL] | 4.64 |
| VMFQRRYYKPGLLMMCFILPTLVP [SCD] | 2.72 |

Task: Fill blank: measured protein stability index of the sequence HVHDPHGQVIWGMSWAKLARQATN [FBXO39] is ____.
Result: 2.94

Task: Same again, this time with TLDGRTPLHLAAQRGHYRVARILI [RIPK4]
Result: 1.92

Task: Another sequence: SEFHPHHCNLFVYSSSKGSLRLCD [PPP2R2C]
Result: 2.27

Task: Can you check RIHVGKKYGDIPRGIFVVRGENVV [LSM1] next?
Result: 2.24

Task: Query EPGPAGPPPPPSPSSLGPLLPLQR [BTBD1] next
Result: 4.76
